tested on: isolated rabbit ear preparation; assay: Rabbit ear perfusion test (adrenaline-induced tone, perfusion pressure); conditions: Oryctolagus cuniculus, Table 5; dose 1000 µg; read-out: Mean % change in perfusion pressure
Assay readout: inhibition at 1 mg (%)
Numeric answer only, unit % assumed.

The cases that follow already have their inhibition at 1 mg on record.
CCCCNC12OC3C4C5CC(C6C5C3C61)C42 (racemic) ... 12
CC(C)CNC12OC3C4C5CC(C6C5C3C61)C42 (racemic) ... 7
CCNC12OC3C4C5CC(C6C5C3C61)C42 (racemic) ... 5.5

Need inhibition at 1 mg, item CCCCCCCCNC12OC3C4C5CC(C6C5C3C61)C42 (racemic)
41

----------
tested on: guinea-pig papillary muscle; assay: Electrophysiological test: action potential of guinea-pig papillary muscle (microelectrode technique); conditions: Table 3; suppression of action potential at the listed bath concentration
Assay readout: DEGREE OF SUPPRESSION

Example results:
c1ccc(CCCNC23OC4C5C6CC(C7C6C4C72)C53)cc1 (racemic) ... complete
COc1ccc(CCN(C)CCCC(C#N)(c2ccc(OC)c(OC)c2)C(C)C)cc1OC (stereo not drawn) [Verapamil, reference compound] ... complete
CNC12OC3C4C5CC(C6C5C3C61)C42 (racemic) ... very little
CCCCCCCCNC12OC3C4C5CC(C6C5C3C61)C42 (racemic) ... complete
CCCCNC12OC3C4C5CC(C6C5C3C61)C42 (racemic) ... very little

Kindly consider the entry below.
Look up DEGREE OF SUPPRESSION: c1ccc(CNC23OC4C5C6CC(C7C6C4C72)C53)cc1 (racemic)
complete

----------
Some compounds, each annotated with its measured TIME 2 (Shortest time needed for reversal of effect by washing out of compound).
system: guinea-pig papillary muscle; assay: Electrophysiological test: action potential of guinea-pig papillary muscle (microelectrode technique); settings: Table 3; at the listed bath concentration
Hi! Could you send only the number? It should be in min, unit omitted.

Study these solved cases before continuing.
CCCCCCCCNC12OC3C4C5CC(C6C5C3C61)C42 (racemic) ... 6
c1ccc(CNC23OC4C5C6CC(C7C6C4C72)C53)cc1 (racemic) ... 10
COc1ccc(CCN(C)CCCC(C#N)(c2ccc(OC)c(OC)c2)C(C)C)cc1OC (stereo not shown) [Verapamil, reference compound] ... 15

Okay, now this compound:
Returns the measured TIME 2 (Shortest time needed for reversal of effect by washing out of compound) for the input compound. Input: c1ccc(CCCNC23OC4C5C6CC(C7C6C4C72)C53)cc1 (racemic)
14
